Data provenance is patent US10183936B2.

The reader will find reported activity at 10 µM values listed item by item below.
system: HBV viral production in AD38 cells; assay: Viral load production in AD38 cells by quantitative PCR of the HBV core sequence in supernatant; format: cell-based; details: Hepatitis B virus, 144 h; 10 μM compound, 6 days at 37° C., viral load in supernatant compared against DMSO control wells; read-out: AD38 Viral Load (CpAM/DMSO %) at 10 μM
Field: numeric (%). Do not append units.

Example entries and their recorded answers appear below.
O=C(NCC(c1ccccc1)N1CCCC1)c1ccc2c(c1)NC(=O)c1ccccc1S2 (stereo not shown); 8
O=C(NCc1ccc(-c2cncnc2)cc1)c1ccc2c(c1)NC(=O)c1cc(F)ccc1S2; 69
O=C(NCc1ccc(F)cc1)c1ccc2c(c1)NC(=O)c1ccccc1S2(=O)=O; 1

We next turn to a different compound, shown below.
// query Please look up its activity at 10 µM: CCOc1ccc(CCNC(=O)c2ccc3c(c2)NC(=O)c2ccccc2S3)cc1
// result 2
